- experimental target: Nav 1.7 (Homo sapiens (Human))
- Sequence (Q15858 whole entry): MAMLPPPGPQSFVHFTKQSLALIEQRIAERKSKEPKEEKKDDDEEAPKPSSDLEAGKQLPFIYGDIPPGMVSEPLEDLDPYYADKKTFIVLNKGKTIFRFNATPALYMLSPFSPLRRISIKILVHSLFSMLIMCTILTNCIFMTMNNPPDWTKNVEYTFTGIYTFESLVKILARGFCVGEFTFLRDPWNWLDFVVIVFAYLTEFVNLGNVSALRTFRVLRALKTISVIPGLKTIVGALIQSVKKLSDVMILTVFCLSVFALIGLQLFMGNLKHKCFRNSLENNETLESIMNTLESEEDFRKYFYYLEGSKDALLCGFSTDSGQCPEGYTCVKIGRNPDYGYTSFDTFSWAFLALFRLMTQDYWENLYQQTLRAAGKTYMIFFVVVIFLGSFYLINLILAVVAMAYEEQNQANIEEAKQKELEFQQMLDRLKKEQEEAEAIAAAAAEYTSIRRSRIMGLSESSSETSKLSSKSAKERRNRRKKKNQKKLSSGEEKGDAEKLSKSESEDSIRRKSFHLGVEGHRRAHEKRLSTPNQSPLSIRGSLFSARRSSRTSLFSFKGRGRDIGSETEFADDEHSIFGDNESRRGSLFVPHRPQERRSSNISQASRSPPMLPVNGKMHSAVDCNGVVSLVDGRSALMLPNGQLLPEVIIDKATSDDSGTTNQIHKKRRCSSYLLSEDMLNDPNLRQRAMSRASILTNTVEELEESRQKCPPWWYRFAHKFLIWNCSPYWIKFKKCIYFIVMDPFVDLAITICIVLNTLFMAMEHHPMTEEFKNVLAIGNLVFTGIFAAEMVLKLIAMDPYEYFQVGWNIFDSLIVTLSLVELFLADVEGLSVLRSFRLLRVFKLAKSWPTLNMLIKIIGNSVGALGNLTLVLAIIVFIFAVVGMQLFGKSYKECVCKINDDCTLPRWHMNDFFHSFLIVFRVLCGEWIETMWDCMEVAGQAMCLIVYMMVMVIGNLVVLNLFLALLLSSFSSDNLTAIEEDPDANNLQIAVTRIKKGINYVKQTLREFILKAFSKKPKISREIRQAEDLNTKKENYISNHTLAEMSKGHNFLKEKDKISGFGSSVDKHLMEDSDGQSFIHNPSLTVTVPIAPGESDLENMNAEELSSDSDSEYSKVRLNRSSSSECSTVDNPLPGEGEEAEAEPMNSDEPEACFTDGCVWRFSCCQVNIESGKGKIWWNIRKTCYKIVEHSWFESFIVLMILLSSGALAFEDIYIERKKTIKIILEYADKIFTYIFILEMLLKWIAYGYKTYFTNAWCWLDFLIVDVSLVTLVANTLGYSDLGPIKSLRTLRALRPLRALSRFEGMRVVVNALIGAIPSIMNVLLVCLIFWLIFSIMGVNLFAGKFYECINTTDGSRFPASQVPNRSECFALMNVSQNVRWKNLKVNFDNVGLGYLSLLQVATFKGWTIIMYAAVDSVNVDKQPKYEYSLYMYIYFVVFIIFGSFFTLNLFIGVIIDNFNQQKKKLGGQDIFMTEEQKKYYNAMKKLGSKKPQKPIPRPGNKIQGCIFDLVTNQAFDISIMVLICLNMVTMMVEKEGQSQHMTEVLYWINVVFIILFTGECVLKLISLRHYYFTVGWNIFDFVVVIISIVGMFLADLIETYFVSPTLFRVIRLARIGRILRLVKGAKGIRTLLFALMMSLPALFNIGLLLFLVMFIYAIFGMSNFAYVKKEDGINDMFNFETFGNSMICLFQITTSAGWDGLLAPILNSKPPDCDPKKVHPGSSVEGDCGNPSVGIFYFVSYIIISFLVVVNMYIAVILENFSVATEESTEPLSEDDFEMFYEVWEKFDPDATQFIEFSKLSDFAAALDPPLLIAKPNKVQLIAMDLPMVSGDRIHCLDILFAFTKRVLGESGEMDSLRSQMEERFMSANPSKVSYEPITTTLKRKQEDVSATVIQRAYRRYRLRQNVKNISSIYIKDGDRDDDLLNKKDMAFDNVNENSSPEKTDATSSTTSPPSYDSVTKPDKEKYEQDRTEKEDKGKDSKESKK
- assay overview: Inhibition of sodium channels, Red Membrane Potential Dye FLIPR assay, veratridine depolarization
- Type: cell-based
- condition label: HEK-293 cells overexpressing the channel; read-out: Nav1.7 IC50
pIC50 values by entry
Entry type: numeric. Quantity: pIC50, the -log10 of concentration in molar units.

[
  {
    "molecule": "O=S(=O)(Nc1ncccn1)c1ccc2c(c1)OCC[C@@H]2c1ccc(C(F)(F)F)cc1OC1CCOCC1",
    "recorded number": 7.37
  },
  {
    "molecule": "Cn1nccc1-c1cc(Cl)ccc1[C@H]1CCOc2cc(S(=O)(=O)Nc3cccc(F)n3)ccc21",
    "recorded number": 6.82
  },
  {
    "molecule": "CC(C)Oc1ccc(-c2cc(C(F)(F)F)ccc2[C@H]2CCOc3cc(S(=O)(=O)Nc4ncccn4)ccc32)cn1",
    "recorded number": 7.96
  },
  {
    "molecule": "O=S(=O)(Nc1ncccn1)c1ccc2c(c1)OCC[C@@H]2c1ccc(C(F)(F)F)cc1OC1COC1",
    "recorded number": 6.82
  },
  {
    "molecule": "O=S(=O)(Nc1ccncn1)c1ccc2c(c1)OCC[C@H]2c1ccc(C(F)(F)F)cc1OC1CCOCC1",
    "recorded number": 5.56
  }
]

// field: pIC50; key: COCCCCc1cc(C(F)(F)F)ccc1[C@H]1CCOc2cc(S(=O)(=O)Nc3cccnn3)ccc21 (racemic) ; value = 7.51

// field: pIC50; key: COCCCc1cc(C(F)(F)F)ccc1[C@H]1CCOc2cc(S(=O)(=O)Nc3ccncn3)ccc21 (racemic) ; value = 7.80

* * *

- experimental target: Nav 1.5 (Homo sapiens (Human), UniProt Q14524)
- Sequence (Q14524 whole entry): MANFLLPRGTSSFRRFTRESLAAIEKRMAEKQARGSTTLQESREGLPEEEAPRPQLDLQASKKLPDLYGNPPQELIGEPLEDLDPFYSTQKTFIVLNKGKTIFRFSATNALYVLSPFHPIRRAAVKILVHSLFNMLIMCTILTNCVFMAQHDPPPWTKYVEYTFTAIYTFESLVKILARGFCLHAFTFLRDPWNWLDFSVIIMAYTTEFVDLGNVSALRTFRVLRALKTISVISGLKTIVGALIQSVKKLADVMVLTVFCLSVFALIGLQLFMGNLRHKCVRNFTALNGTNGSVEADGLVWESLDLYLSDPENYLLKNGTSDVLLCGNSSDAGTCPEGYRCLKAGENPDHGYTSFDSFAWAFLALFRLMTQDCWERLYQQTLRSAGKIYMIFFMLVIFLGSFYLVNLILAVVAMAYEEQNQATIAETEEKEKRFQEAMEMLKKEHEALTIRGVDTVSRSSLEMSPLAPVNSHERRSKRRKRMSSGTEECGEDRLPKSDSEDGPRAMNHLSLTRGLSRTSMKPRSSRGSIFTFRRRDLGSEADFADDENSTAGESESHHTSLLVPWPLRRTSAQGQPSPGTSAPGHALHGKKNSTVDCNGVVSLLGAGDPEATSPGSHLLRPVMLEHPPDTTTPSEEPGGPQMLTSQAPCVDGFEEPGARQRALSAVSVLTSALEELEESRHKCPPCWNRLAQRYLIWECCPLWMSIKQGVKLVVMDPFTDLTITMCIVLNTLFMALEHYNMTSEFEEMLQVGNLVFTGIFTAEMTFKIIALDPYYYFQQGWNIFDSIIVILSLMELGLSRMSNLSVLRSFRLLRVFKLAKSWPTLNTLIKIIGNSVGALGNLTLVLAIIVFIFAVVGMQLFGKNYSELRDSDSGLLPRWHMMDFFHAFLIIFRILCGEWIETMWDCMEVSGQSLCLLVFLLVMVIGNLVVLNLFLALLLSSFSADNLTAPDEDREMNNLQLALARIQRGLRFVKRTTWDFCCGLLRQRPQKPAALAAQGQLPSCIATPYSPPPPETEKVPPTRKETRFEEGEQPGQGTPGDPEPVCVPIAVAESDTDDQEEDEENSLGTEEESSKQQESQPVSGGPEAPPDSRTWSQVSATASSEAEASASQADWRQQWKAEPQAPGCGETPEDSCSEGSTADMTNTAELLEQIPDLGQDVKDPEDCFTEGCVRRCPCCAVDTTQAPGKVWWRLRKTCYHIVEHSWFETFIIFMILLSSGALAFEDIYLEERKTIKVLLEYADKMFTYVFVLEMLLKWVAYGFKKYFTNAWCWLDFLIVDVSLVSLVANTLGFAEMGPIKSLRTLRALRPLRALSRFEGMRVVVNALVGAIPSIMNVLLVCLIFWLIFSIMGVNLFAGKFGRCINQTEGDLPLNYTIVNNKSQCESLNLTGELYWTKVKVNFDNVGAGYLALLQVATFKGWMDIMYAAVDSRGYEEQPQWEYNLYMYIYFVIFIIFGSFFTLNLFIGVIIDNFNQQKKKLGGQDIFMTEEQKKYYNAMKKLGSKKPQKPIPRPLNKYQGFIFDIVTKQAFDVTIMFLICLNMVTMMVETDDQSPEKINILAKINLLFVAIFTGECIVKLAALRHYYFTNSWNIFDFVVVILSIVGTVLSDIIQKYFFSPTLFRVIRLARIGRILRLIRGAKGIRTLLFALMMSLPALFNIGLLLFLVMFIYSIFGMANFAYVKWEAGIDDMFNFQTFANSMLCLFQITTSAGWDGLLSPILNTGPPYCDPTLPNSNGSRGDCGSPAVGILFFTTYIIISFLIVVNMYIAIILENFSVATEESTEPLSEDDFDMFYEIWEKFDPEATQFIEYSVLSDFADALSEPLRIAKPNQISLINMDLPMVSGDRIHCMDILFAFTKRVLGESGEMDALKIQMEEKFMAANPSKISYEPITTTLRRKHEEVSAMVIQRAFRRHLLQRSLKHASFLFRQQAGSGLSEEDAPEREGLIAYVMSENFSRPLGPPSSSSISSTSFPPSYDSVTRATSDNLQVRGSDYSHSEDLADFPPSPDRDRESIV
- assay overview: Inhibition of sodium channels, Red Membrane Potential Dye FLIPR assay, veratridine depolarization
- Assay type: cell-based
- condition label: HEK-293 cells overexpressing the channel; read-out: Nav1.5 IC50
Note to self: use class 1 only for IC50 readings below 0.3 µM; a reading exactly at 0.3 µM still gets class 0.

Completed entries (count: 8):
[
  {
    "molecule": "CCCc1cc(C(F)(F)F)ccc1C1CCOc2cc(S(=O)(=O)Nc3cccnn3)ccc21 (centres unmarked) [Example-243]",
    "experimental target": "Nav 1.5 (Homo sapiens (Human), UniProt Q14524)",
    "answer label": "class 0"
  },
  {
    "molecule": "CCOc1ccc(-c2cc(C(F)(F)F)ccc2[C@H]2CCOc3cc(S(=O)(=O)Nc4ncccn4)ccc32)cn1 (racemic) [Example 103]",
    "experimental target": "Nav 1.5 (Homo sapiens (Human), UniProt Q14524)",
    "answer label": "class 0"
  },
  {
    "molecule": "O=S(=O)(Nc1cccc(F)n1)c1ccc2c(c1)OCC[C@@H]2c1ccc(C(F)(F)F)cc1CCCCF (racemic) [Example 167]",
    "experimental target": "Nav 1.5 (Homo sapiens (Human), UniProt Q14524)",
    "answer label": "class 1"
  },
  {
    "molecule": "Cc1ccc(-c2cc(C(F)(F)F)ccc2[C@H]2CCOc3cc(S(=O)(=O)Nc4cccnn4)ccc32)cn1 (stereo in doubt) [Example-205]",
    "experimental target": "Nav 1.5 (Homo sapiens (Human), UniProt Q14524)",
    "answer label": "class 1"
  },
  {
    "molecule": "O=S(=O)(Nc1cccc(F)n1)c1ccc2c(c1)OCC[C@@H]2c1ccc(C(F)(F)F)cc1OC1CCOCC1 [Example-177]",
    "experimental target": "Nav 1.5 (Homo sapiens (Human), UniProt Q14524)",
    "answer label": "class 1"
  },
  {
    "molecule": "Cc1nc(-c2cc(C(F)(F)F)ccc2[C@H]2CCOc3cc(S(=O)(=O)Nc4cccnn4)ccc32)ccc1F (racemic) [Example-224]",
    "experimental target": "Nav 1.5 (Homo sapiens (Human), UniProt Q14524)",
    "answer label": "class 0"
  },
  {
    "molecule": "O=S(=O)(Nc1ncc(F)cn1)c1ccc2c(c1)OCC[C@@H]2c1ccc(C(F)(F)F)cc1CCCF (racemic) [Example 159]",
    "experimental target": "Nav 1.5 (Homo sapiens (Human), UniProt Q14524)",
    "answer label": "class 0"
  },
  {
    "molecule": "O=S(=O)(Nc1cccnn1)c1ccc2c(c1)OCC[C@@H]2c1ccc(C(F)(F)F)cc1-c1ccc(F)nc1 [Example 42]",
    "experimental target": "Nav 1.5 (Homo sapiens (Human), UniProt Q14524)",
    "answer label": "class 0"
  }
]

-- ask Please check: IC50 for O=S(=O)(Nc1cccnn1)c1ccc2c(c1)OCC[C@@H]2c1ccc(C(F)(F)F)cc1OC1CCOCC1 [Example-175] , strictly under 0.3 µM or not?
-- reply class 0

-- ask Please check: IC50 for O=S(=O)(Nc1ncccn1)c1ccc2c(c1)OCC[C@@H]2c1ccc(C(F)(F)F)cc1OCCCF [Example-221] , strictly under 0.3 µM or not?
-- reply class 0

* * *

IC50 values by entry
- experimental target: Nav 1.5 (Homo sapiens (Human))
- assay overview: Inhibition of sodium channels, Red Membrane Potential Dye FLIPR assay, veratridine depolarization
- Assay type: cell-based
- condition label: HEK-293 cells overexpressing the channel; read-out: Nav1.5 IC50
A number alone suffices; assume nM.

As a guide, the following entries are already answered.
[
  {
    "molecule": "CCCc1cc(C(F)(F)F)ccc1C1CCOc2cc(S(=O)(=O)Nc3cccnn3)ccc21 (centres unmarked) [Example-242]",
    "experimental target": "Nav 1.5 (Homo sapiens (Human))",
    "unit spec": "nM",
    "IC50": 3650
  },
  {
    "molecule": "O=S(=O)(Nc1cccc(F)n1)c1ccc2c(c1)OCC[C@@H]2c1ccc(C(F)(F)F)cc1CCC(F)F (racemic)",
    "experimental target": "Nav 1.5 (Homo sapiens (Human))",
    "unit spec": "nM",
    "IC50": 1350
  },
  {
    "molecule": "Cc1nc(-c2cc(C(F)(F)F)ccc2[C@H]2CCOc3cc(S(=O)(=O)Nc4cccc(F)n4)ccc32)ccc1F (racemic)",
    "experimental target": "Nav 1.5 (Homo sapiens (Human))",
    "unit spec": "nM",
    "IC50": 1500
  },
  {
    "molecule": "O=S(=O)(Nc1ncccn1)c1ccc2c(c1)OCC[C@@H]2c1ccc(C(F)(F)F)cc1OC1CCOCC1",
    "experimental target": "Nav 1.5 (Homo sapiens (Human))",
    "unit spec": "nM",
    "IC50": 4890
  },
  {
    "molecule": "COCCc1cc(C(F)(F)F)ccc1[C@H]1CCOc2cc(S(=O)(=O)Nc3cccc(F)n3)ccc21 (racemic)",
    "experimental target": "Nav 1.5 (Homo sapiens (Human))",
    "unit spec": "nM",
    "IC50": 3640
  },
  {
    "molecule": "COCCCOc1cc(C(F)(F)F)ccc1[C@H]1CCOc2cc(S(=O)(=O)Nc3cccc(F)n3)ccc21 (racemic)",
    "experimental target": "Nav 1.5 (Homo sapiens (Human))",
    "unit spec": "nM",
    "IC50": 1340
  },
  {
    "molecule": "O=S(=O)(Nc1cccnn1)c1ccc2c(c1)OCC[C@@H]2c1ccc(C(F)(F)F)cc1CCCF (racemic)",
    "experimental target": "Nav 1.5 (Homo sapiens (Human))",
    "unit spec": "nM",
    "IC50": 1350
  },
  {
    "molecule": "O=S(=O)(Nc1ncccn1)c1ccc2c(c1)OCC[C@@H]2c1ccc(C(F)(F)F)cc1CCC(F)F (racemic)",
    "experimental target": "Nav 1.5 (Homo sapiens (Human))",
    "unit spec": "nM",
    "IC50": 777
  },
  {
    "molecule": "Cc1ccnc(NS(=O)(=O)c2ccc3c(c2)OCC[C@@H]3c2ccc(C(F)(F)F)cc2-c2ccnn2C)c1",
    "experimental target": "Nav 1.5 (Homo sapiens (Human))",
    "unit spec": "nM",
    "IC50": 3920
  },
  {
    "molecule": "O=S(=O)(Nc1cccc(F)n1)c1ccc2c(c1)OCC[C@@H]2c1ccc(C(F)(F)F)cc1CCCF (racemic)",
    "experimental target": "Nav 1.5 (Homo sapiens (Human))",
    "unit spec": "nM",
    "IC50": 2640
  }
]

// field: IC50; key: O=S(=O)(Nc1ccncn1)c1ccc2c(c1)OCC[C@@H]2c1ccc(C(F)(F)F)cc1CCCCF (racemic) ; value = 303

* * *

- experimental target: UniProt Q15858
- assay overview: Inhibition of sodium channels, Red Membrane Potential Dye FLIPR assay, veratridine depolarization
- Type: cell-based
- condition label: HEK-293 cells overexpressing the channel; read-out: Nav1.7 IC50
property label: log10 of IC50 (log10 of the value in nM)
Log10 applied to IC50; unit prior to transform: nM.

As a guide, the following entries are already answered.
[
  {
    "compound": "O=S(=O)(Nc1ncccn1)c1ccc2c(c1)OCCC2c1ccc(C(F)(F)F)cc1O[C@H]1CCOC1 (some centres unmarked) [Example-178]",
    "experimental target": "UniProt Q15858",
    "log10 of IC50": 2.17
  },
  {
    "compound": "O=S(=O)(Nc1ccncn1)c1ccc2c(c1)OCC[C@@H]2c1ccc(C(F)(F)F)cc1CCF (racemic) [Example 155]",
    "experimental target": "UniProt Q15858",
    "log10 of IC50": 0.60
  },
  {
    "compound": "Cc1nc(-c2cc(C(F)(F)F)ccc2[C@H]2CCOc3cc(S(=O)(=O)Nc4cccnn4)ccc32)cs1 [Example 70]",
    "experimental target": "UniProt Q15858",
    "log10 of IC50": 2.06
  },
  {
    "compound": "Cc1ccnc(NS(=O)(=O)c2ccc3c(c2)OCC[C@H]3c2ccc(C(F)(F)F)cc2-c2ccnn2C)c1 [Example 23]",
    "experimental target": "UniProt Q15858",
    "log10 of IC50": 3.57
  },
  {
    "compound": "Cc1ccc(NS(=O)(=O)c2ccc3c(c2)OCC[C@@H]3c2ccc(C(F)(F)F)cc2-c2ccnn2C)nc1 [Example 22]",
    "experimental target": "UniProt Q15858",
    "log10 of IC50": 3.31
  },
  {
    "compound": "CC(C)Oc1ccc(-c2cc(C(F)(F)F)ccc2[C@@H]2CCOc3cc(S(=O)(=O)Nc4ncccn4)ccc32)cn1 [Example 97]",
    "experimental target": "UniProt Q15858",
    "log10 of IC50": 2.23
  }
]

Cc1nc(-c2cc(C(F)(F)F)ccc2[C@H]2CCOc3cc(S(=O)(=O)Nc4cccnn4)ccc32)co1 [Example 80] tested on UniProt Q15858 gave log10 of IC50: 2.06

COCCCc1cc(C(F)(F)F)ccc1[C@H]1CCOc2cc(S(=O)(=O)Nc3cccc(F)n3)ccc21 (racemic) [Example 145] tested on UniProt Q15858 gave log10 of IC50: 1.28

Cc1nc(-c2cc(C(F)(F)F)ccc2[C@@H]2CCOc3cc(S(=O)(=O)Nc4ncccn4)ccc32)cs1 [Example 63] tested on UniProt Q15858 gave log10 of IC50: 2.72

O=S(=O)(Nc1cccc(F)n1)c1ccc2c(c1)OCC[C@@H]2c1ccc(C(F)(F)F)cc1OC1CCOCC1 [Example-177] tested on UniProt Q15858 gave log10 of IC50: 1.04

COCCCc1cc(C(F)(F)F)ccc1[C@@H]1CCOc2cc(S(=O)(=O)Nc3ncccn3)ccc21 [Example 140] tested on UniProt Q15858 gave log10 of IC50: 3.24
